- target: MAP kinase p38 (Homo sapiens) (UniProt O15264+Q15759+Q16539+P53778)
- procedureText: Activation of p38 in human A549 cells assessed as downregulation of procaspase-8 level by Western blot analysis
- Format: cell-based

givenSmiles: CCN1C[C@]2(COC)[C@H](O)C[C@@H](OC)[C@@]34[C@@H]5C[C@@]6(O)[C@H](OC(=O)c7ccccc7)[C@@H]5[C@@](OC(C)=O)([C@@H]([C@H](OC)[C@H]23)[C@H]14)[C@@H](O)[C@@H]6OC
Activity: Dose-dependent effect

givenSmiles: CCN1C[C@]2(COC)CC[C@H](OC)[C@]34C1[C@H]([C@H](OC)[C@H]23)[C@]1(OC(C)=O)[C@H]2[C@@H](OC(=O)c3ccccc3)[C@](O)(C[C@H]24)[C@@H](OC)[C@@H]1O
Activity: Dose-dependent effect

givenSmiles: CCN1C[C@@]2(COC)[C@H]3[C@@H](OC)[C@H]4C1[C@]3([C@@H](OC)C[C@H]2OC(C)=O)[C@@H]1C[C@@]2(O)[C@H](OC(=O)c3ccccc3)[C@@H]1[C@]4(OC(C)=O)[C@@H](O)[C@@H]2OC
Activity: Dose-dependent effect

givenSmiles: C=C1[C@H]2C[C@@]3([C@@H]1O)[C@@H](CC2=O)[C@@]12C4[C@@H]3C[C@@H]1[C@@](C)(CC[C@@H]2O)CN4CC
Activity: Dose-dependent effect
